B1: Floral homeotic protein … (Arabidopsis thaliana (Mouse-ear cress)), P48007 (parent)
chain: MGRGKIEIKRIENANNRVVTFSKRRNGLVKKAKEITVLCDAKVALIIFASNGKMIDYCCPSMDLGAMLDQYQKLSGKKLWDAKHENLSNEIDRIKKENDSLQLELRHLKGEDIQSLNLKNLMAVEHAIEHGLDKVRDHQMEILISKRRNEKMMAEEQRQLTFQLQQQEMAIASNARGMMMRDHDGQFGYRVQPIQPNLQEKIMSLVID
partner: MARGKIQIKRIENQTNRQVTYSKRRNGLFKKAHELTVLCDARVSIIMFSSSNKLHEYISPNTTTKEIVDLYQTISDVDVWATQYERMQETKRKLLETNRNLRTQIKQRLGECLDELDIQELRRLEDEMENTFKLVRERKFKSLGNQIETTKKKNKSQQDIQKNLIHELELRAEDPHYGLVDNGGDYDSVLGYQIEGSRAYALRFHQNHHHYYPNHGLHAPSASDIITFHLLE

Variants of: B1
Conditions: with ap3_arath AP3, P35632

>  <variant annotation>
G110P

>  <effect of a mutation on the interaction>
decreasing interaction

$$$$
>  <variant annotation>
G131V

>  <effect of a mutation on the interaction>
decreasing interaction

$$$$
>  <variant annotation>
M153P

>  <effect of a mutation on the interaction>
decreasing interaction

$$$$
>  <variant annotation>
L87P

>  <effect of a mutation on the interaction>
decreasing interaction

$$$$
>  <variant annotation>
V135A

>  <effect of a mutation on the interaction>
decreasing interaction

$$$$
>  <variant annotation>
L103P

>  <effect of a mutation on the interaction>
decreasing interaction

$$$$
>  <variant annotation>
Q167P

>  <effect of a mutation on the interaction>
increasing interaction

$$$$
>  <variant annotation>
I128T

>  <effect of a mutation on the interaction>
decreasing interaction

$$$$
>  <variant annotation>
L116P

>  <effect of a mutation on the interaction>
decreasing interaction

$$$$
>  <variant annotation>
L160P

>  <effect of a mutation on the interaction>
increasing interaction

$$$$
>  <variant annotation>
L132P

>  <effect of a mutation on the interaction>
decreasing interaction

$$$$
>  <variant annotation>
N98D

>  <effect of a mutation on the interaction>
decreasing interaction

$$$$
>  <variant annotation>
N149P

>  <effect of a mutation on the interaction>
increasing interaction

$$$$
>  <variant annotation>
I91T

>  <effect of a mutation on the interaction>
decreasing interaction

$$$$
>  <variant annotation>
A154P

>  <effect of a mutation on the interaction>
decreasing interaction

$$$$
>  <variant annotation>
I94T

>  <effect of a mutation on the interaction>
decreasing interaction

$$$$
>  <variant annotation>
L116R

>  <effect of a mutation on the interaction>
decreasing interaction

$$$$
>  <variant annotation>
L121P

>  <effect of a mutation on the interaction>
decreasing interaction

$$$$
>  <variant annotation>
G177P

>  <effect of a mutation on the interaction>
increasing interaction

$$$$
>  <variant annotation>
L121A

>  <effect of a mutation on the interaction>
decreasing interaction

$$$$
>  <variant annotation>
L108S

>  <effect of a mutation on the interaction>
decreasing interaction

$$$$
>  <variant annotation>
L105H

>  <effect of a mutation on the interaction>
decreasing interaction

$$$$
